Source of measurements: PubChem BioAssay

- tested target: NADPH oxidase 4 (Homo sapiens) (UniProt Q9NPH5)
- Sequence (Q9NPH5 whole entry, looked up): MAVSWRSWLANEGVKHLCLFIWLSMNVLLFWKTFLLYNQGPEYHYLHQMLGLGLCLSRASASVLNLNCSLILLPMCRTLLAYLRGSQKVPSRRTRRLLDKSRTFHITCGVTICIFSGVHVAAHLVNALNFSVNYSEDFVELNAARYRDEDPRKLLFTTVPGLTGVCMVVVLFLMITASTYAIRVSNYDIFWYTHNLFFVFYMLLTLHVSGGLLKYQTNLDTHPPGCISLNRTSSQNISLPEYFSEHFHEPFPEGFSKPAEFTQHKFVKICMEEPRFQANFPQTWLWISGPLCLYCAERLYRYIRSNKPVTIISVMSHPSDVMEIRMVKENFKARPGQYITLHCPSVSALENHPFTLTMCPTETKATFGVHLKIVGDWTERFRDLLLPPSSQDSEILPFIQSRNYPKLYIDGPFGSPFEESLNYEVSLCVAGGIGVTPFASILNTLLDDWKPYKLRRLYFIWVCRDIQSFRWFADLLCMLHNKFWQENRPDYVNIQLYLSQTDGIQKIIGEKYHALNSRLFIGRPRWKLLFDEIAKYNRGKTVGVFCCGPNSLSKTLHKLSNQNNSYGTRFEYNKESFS
- assay details: NOX4-dependent H2O2 signal modulators, primary screen, NOX inhibitor project, cell-based, HEK293-NOX4, tetracycline-induced, Amplex Red fluorescence (AID 1160)
- condition parameters: 45 min, higher = more signal, called active from +8 up or from −8 down
reported property: z-score
Output spec: single numeric token, no unit.

Qu. Given the entry "CO[C@@H]1COC(=O)[C@H](C)NC(=O)[C@@H](C)COC(=O)CCC[C@H]1C" , report its measured z-score.
Ans. 0.0705

* * *

Reported z-score by item:
- assay details: inhibitors of hydroxyurea-induced Chk1 phosphorylation, primary screen, imaging, HeLa, phospho-Chk1 antibody, percent positive cells (AID 1186)
- condition parameters: hydroxyurea-induced phospho-Chk1 immunofluorescence imaging, higher = more signal
In your answer, state the number alone without any accompanying words.

[
  {
    "molecule": "COC(=O)[C@@]1(Cc2ccc(OC)cc2)[C@H]2c3cc(C(=O)N4CCCC4)n(Cc4cc(F)c(F)c(F)c4)c3C[C@H]2CN1C(=O)c1ccccc1",
    "reported property": "z-score",
    "observed result": -0.345
  }
]

Qu. Item under review: "CN(C)CCCNC(=O)[C@@H]1c2ccccc2C(=O)N(Cc2cc(F)cc(C(F)(F)F)c2)[C@H]1c1ccc(CO)cc1" . Reported z-score?
Ans. 0.241

Qu. z-score for "CCOC(=O)C[C@H]1[C@H](OC(=O)c2cc3ccccc3oc2=O)[C@@H](NC(=O)c2ccc3ccccc3n2)c2cc(OCCCO)ccc2N1C(=O)c1ccccc1" ?
Ans. 0.22

Qu. Given the entry O[C@@H](Cc1ccccc1)[C@H]1C2C=CCCC(c3ccccc3)=C2CN1Cc1cccc(Cl)c1 (some centres undefined) , report its measured z-score.
Ans. -0.215

* * *

- assay details: COS7 lysate on small-molecule microarray, probe aHis, 635 nm (AID 1123);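 further: z-score combines 667nm fluorescence intensity with signal-to-noise per printed compound spot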
- condition parameters: COS7 cell lysate, fluorescence, higher = more signal
I would appreciate it if you labelled entries TRUE when composite z-score is 0.2 or higher, otherwise FALSE.

Example cases with answers are listed next.
[
  {
    "compound": "Cc1ccc(S[C@]2(C(=O)O)CC(=O)N(Cc3ccccc3)[C@@H]2c2ccc(CO)cc2I)cc1",
    "label class": "TRUE"
  },
  {
    "compound": "COC(=O)[C@@H]1CC[C@H](C)[C@@H](c2ccc(C)cc2)N1C(=O)c1ccc(C=NOC(C)CN2CCCCc3nc(C)c(C)cc32)cc1 (some centres undefined)",
    "label class": "FALSE"
  },
  {
    "compound": "COc1ccc(O[C@H]2C=C[C@@H](c3ccccc3)O[C@@H]2CON=C[C@@H](C)[C@H](OCc2ccccc2)C(C)C)cc1",
    "label class": "FALSE"
  },
  {
    "compound": "CCOC(=O)CCN1C(=O)[C@H]2[C@H]3[C@H](O)[C@H](O)CC(=NOC[C@@H](O)COCc4ccco4)[C@@H]3CC[C@H]2C1=O",
    "label class": "FALSE"
  }
]

Turning now to a further record.
Qu. Please indicate if the recorded composite z-score for "CCc1cc2c(nc1CC)CCN(CCC(C)=NO[C@@H](C)c1cc(-c3c(C)cc(C)cc3C)no1)C2" meets or exceeds 0.2.
Ans. TRUE
